Assay: CCTE_Shafer_MEA_acute_per_network_burst_electrodes_number_mean: CCTE's Neural Acute Assay for Mean Number of Electrodes in a Network Burst, Shafer Lab (AID 2284021);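 also: curves fitted for decreases only so hits reduce electrodes per burst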
Calls of active or inactive are those of the source. The calls were made as follows: active = hit-call score of the fitted dose curve at least 0.9, where 1 is the maximum; inactive = score below 0.9.
metric: AC50

Record excerpt, results attached:
compound=CCCCCCCCCC[N+](C)(C)CCCCCCCCCC metric=AC50 result="12.5 µM (active)"
compound=CCSC(=O)N(CC)C1CCCCC1 metric=AC50 result=inactive
compound="CC(C)C(=O)OCC(C)(C)C(OC(=O)C(C)C)C(C)C (stereo not given)" metric=AC50 result=inactive
compound=C=CC(N)=O metric=AC50 result=inactive
compound=c1ccc(-c2ccccc2)cc1 metric=AC50 result=inactive

Task: Consider the compound ClC1=C(Cl)[C@]2(Cl)[C@@H]3[C@@H](Cl)[C@H]4O[C@H]4[C@@H]3C1(Cl)C2(Cl)Cl and give its measured AC50.
Output: 0.0956 µM (active)

Task: Would you mind doing O=C(NC(=O)c1c(F)cccc1F)Nc1cc(Cl)c(OC(F)(F)C(F)F)c(Cl)c1 as well?
Output: inactive

Task: Would you mind doing CCCN(CCC)N=O as well?
Output: inactive

Task: Would you mind doing ClC1=C(Cl)[C@]2(Cl)[C@@H]3[C@H]4C[C@H]([C@@H]5O[C@H]45)[C@@H]3[C@@]1(Cl)C2(Cl)Cl as well?
Output: inactive

Task: Would you mind doing CCC(C)(CC)c1cc(NC(=O)c2c(OC)cccc2OC)on1 as well?
Output: inactive

The measured values listed here are drawn from PubChem BioAssay (EPA / NIEHS).
